- Test system: PPARg DBDmut IVT, anti-PPARg (DBD mutation: PPARg1 K132A/R137A, NR concentration 270 nM)
- assay.summary: PBM binding z-score (relative to random genomic background probes); higher = stronger binding; sequences stand for … in GC…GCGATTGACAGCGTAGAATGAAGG
result.type: PBM binding z-score
One number for each entry.

Before answering, review these 6 worked examples.
monomer.sequence	PBM binding z-score
GATACAGGGTCAGCGAGAGGCCAGAGTATGGAAA	-0.645
CAAACTAGGTCACAGAGGTCAGAGTCCGTGCGTA	1.4
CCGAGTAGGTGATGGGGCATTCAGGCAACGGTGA	-1.06
CCCAGTTGGTCAAGGTCACACACGCTATAGGTAC	0.443
CCTAGCAGGCCAAACTGGGTCACTCAAGGCTTGA	-1.09
GCTGCTTGGTCAACTGATGGTCAGCTAAAGCTCG	-1.06

Respectfully, I request PBM binding z-score for each entry included below.
1. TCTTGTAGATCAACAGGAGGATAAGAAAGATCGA
2. CCTAGCAGGCCAGCGTCACTCAAGCATTTCGCTT
3. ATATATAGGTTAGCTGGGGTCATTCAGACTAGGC
4. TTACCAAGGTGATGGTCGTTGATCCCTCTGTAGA
5. AGAATGAGGTTACCACAGATCAGGGAAACGCTTG
6. ATCTCTAGGTAAAAGTTCAGTTAATCCCGAGGAT

[out]
[0.57, -1.61, 1.71, 0.288, 0.385, 1.29]

* * *

- System: RXRa DBDmut IVT, anti-RXR (DBD mutation: RXRa K156A/R161A, NR concentration 90 nM)
- assay.summary: PBM binding z-score (relative to random genomic background probes); higher = stronger binding; sequences stand for … in GC…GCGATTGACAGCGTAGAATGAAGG
Kindly supply the reported PBM binding z-score values for the records listed here.
Answers are plain numbers.

Before answering, review these 3 worked examples.
monomer.sequence	PBM binding z-score
CAAACTCGGTCAAGGTCAAAGTCGGTTTGTGCCA	2.48
GCTAGTTGGTCTGTAAAAGGTCACACACCGGTCG	0.681
CCTATTAGTTCACCATAAGGGCAACCGAAGCTCG	2.82

Respectfully, I request PBM binding z-score for each entry included below.
1. CCTAGTTGGTCAGGAGGTCACACAGCGGATATGA
2. GCTTACTGGTCAAAGGTTATAGCATGAATAGAAT
3. CTCGAAAGGTCGTGCTAAGGTGAGTATACCAAAC
4. TCAGACAGGAGAAGGTAACTCAGGTACGCAGTCG
5. CAAACTAGGTCACCGGAAGGTCACAGTCCGCATG
6. GGAACGAGGGCATTCGAGTTGATAGGATGGCGAT
7. CAAACTAGGTCACCAGAAGGTCAAAGTCCGCATG

[out]
1: 1.06; 2: 0.714; 3: 2.01; 4: 1.23; 5: 2.19; 6: 3.32; 7: 2.32

Respectfully, I request PBM binding z-score for each entry included below.
1. AGAATAAGGTTACCAAAGATCAGGGAAACGCTTG
2. CCTTCTGGGCCAAGGTCATTGATCAGTCAAAGCA
3. GGATATAGGTAATACAAGGTGAAAGTCCGATTGT
4. CAAACTAGGTCAAGGTCAAAATCGGTTTGTGCCA
5. CGATCTAGGTCAGAACAGGACAGTGAAGGATGAT

[out]
0.391
1.31
0.283
2.64
0.851

Respectfully, I request PBM binding z-score for each entry included below.
1. GCGACTGGGGCATAAGCAGGTTACCATAACTTAA
2. CCGAGTAGGCTATGGGGCATTCAGGCAACGGTGA

[out]
1. 0.0117
2. -0.62

Respectfully, I request PBM binding z-score for each entry included below.
1. GCTCGGAGGACTAGGTCAGAGCTTTGTCCGTAGA
2. ATCGTAAGGTCGAGGTGAGTATAGAGAAAGGGAA
3. CGAACTAGGTCTAGGACAGTGAATCTCCGCACGC
4. CATACTAGGTCACGAAAGGTCAAAGTCGAATGAC
5. AGAATGAGGTTACCAAAGATCAAGGAAACGCTTG
6. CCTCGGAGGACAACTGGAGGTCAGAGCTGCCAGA
7. CATCAAAGTTCAAGGTAACGTAACAGAAAGCAGC
8. ACAGACAGGTGATGAAGGTAACTTAGGCTATCAT

[out]
1: -0.871; 2: 1.49; 3: 0.104; 4: 2.83; 5: 1.13; 6: 0.362; 7: 4.51; 8: -0.093

Respectfully, I request PBM binding z-score for each entry included below.
1. TGGCCTAGGTCAGATCGGGCCAGTATACGCTATA
2. CGTGAAAGTTCAAGGTAACGTAACAGAAAGCAGC

[out]
1: -0.787; 2: 4.44

Respectfully, I request PBM binding z-score for each entry included below.
1. TAGAGTAGGTTACCAATGGGGCATTCAGCTTTCT
2. TCATATAGGGAAAAGGTGAAAGTCGGTGTGGTAA
3. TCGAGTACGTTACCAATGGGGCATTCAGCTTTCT
4. CCAGACAGGTGAGAACGTAACTCAGCCTCGATTA
5. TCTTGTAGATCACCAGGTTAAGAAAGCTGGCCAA
6. CTTCCAAGGTGAACAAGGTCGTTGATTACTATTC

[out]
[0.201, 2.07, 3.13, 0.242, 1.03, 1.57]

Respectfully, I request PBM binding z-score for each entry included below.
1. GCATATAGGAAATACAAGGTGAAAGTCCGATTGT
2. TCAGACAGGTGAAGGTATCTCAGGTACGCAGTCG
3. CGTCAAAGTTCAAGGTAACATAACAGAAAGCAGC
4. TCTCGGAGGACACGAAGGTCAGAGCGTTCCAGAG
5. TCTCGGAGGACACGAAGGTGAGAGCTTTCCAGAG
6. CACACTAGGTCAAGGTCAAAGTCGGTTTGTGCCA

[out]
0.294
1.55
4.63
0.548
0.225
3.28

Respectfully, I request PBM binding z-score for each entry included below.
1. GCGACTGGGGCAAAGCAGGTTGCCATAAGGTTGG
2. TCTAGGTGGTCAAAGGTCACACACTCGAAATGCG
3. CCTGCTAGGTCAATTGTCAGCTAAAGCAGCTCGC
4. CCGAGTATGTTATGGGGCATTCAGGCAACGGTGA

[out]
[-0.48, 1.85, 1.77, 0.833]
